# Test system: Ros pY2274 in HCC78 cells
# Assay details: pROS1 immunofluorescence assay in HCC78 cells
# Type: cell-based
# Condition label: Homo sapiens, HCC78, 4 h, read-out: HCC78-pRos1 pIC50 (converted)
Mark rule met only when IC50 stays strictly below 30 nM. Values equal to the cut-off are rule not met.

>  <Chemical structure>
O=C1NCCn2nc(-c3ccncc3)c(-c3ccc(OCc4ccc(C5CC5)cc4)cc3)c21

>  <Assay target>
Ros pY2274 in HCC78 cells

>  <Discrete label>
rule not met

$$$$
>  <Chemical structure>
CC(C)c1ccc(COc2ccc(-c3c(-c4ccncc4)nn4c3C(=O)N(C(C)C)CC4)cc2)cc1

>  <Assay target>
Ros pY2274 in HCC78 cells

>  <Discrete label>
rule not met

$$$$
>  <Chemical structure>
COc1cc(-c2c(-c3ccnc(N)c3)nn3c2C(=O)N(C)CC3)ccc1OCc1ccc(C(C)C)cc1

>  <Assay target>
Ros pY2274 in HCC78 cells

>  <Discrete label>
rule met

$$$$
>  <Chemical structure>
COc1cc(-c2c(-c3ccnc(N)c3)nn3c2C(=O)NCC3)ccc1OCc1ccc(C(C)C)cc1

>  <Assay target>
Ros pY2274 in HCC78 cells

>  <Discrete label>
rule met

$$$$
>  <Chemical structure>
CC(C)c1ccc(COc2ccc(-c3c(-c4ccncc4)nn4c3C(=O)NCC4)cn2)cc1

>  <Assay target>
Ros pY2274 in HCC78 cells

>  <Discrete label>
rule not met

$$$$
>  <Chemical structure>
CC(C)(C#N)c1ccc(COc2ccc(-c3c(-c4ccncc4)nn4c3C(=O)NCC4)cc2)cc1

>  <Assay target>
Ros pY2274 in HCC78 cells

>  <Discrete label>
rule met

$$$$
>  <Chemical structure>
CC(C)c1ccc(COc2ccc(-c3c(-c4ccncc4)nn4c3C(=O)N(CC3(C)COC3)CC4)cc2)cc1

>  <Assay target>
Ros pY2274 in HCC78 cells

>  <Discrete label>
rule met

$$$$
